SYSTEM UNDER TEST: human M1 receptor (hCHRM1) (Homo sapiens)
Sequence (P11229 whole entry): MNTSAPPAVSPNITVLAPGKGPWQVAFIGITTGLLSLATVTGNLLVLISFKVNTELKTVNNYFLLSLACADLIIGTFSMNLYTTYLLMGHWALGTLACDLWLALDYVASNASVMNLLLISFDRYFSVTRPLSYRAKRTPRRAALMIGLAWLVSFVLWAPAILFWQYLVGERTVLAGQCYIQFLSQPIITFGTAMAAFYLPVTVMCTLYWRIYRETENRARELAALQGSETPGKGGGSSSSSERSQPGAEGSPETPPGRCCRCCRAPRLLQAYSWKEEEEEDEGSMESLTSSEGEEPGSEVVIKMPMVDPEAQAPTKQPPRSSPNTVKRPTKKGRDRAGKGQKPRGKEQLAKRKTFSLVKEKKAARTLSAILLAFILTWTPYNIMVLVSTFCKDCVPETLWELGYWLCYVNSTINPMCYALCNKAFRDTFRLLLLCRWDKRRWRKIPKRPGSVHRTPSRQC
ASSAY EXPLANATION: Measurement of M1 receptor positive allosteric modulator (M1PAM) activity, calcium fluorescence (FLIPRtetra) in CHO-K1 cells in the presence of acetylcholine at EC20
MEASUREMENT CONTEXT: inflection point of M1PAM activity, in the presence of acetylcholine at EC20 (final 0.6 nM), CHO-K1 cells expressing hCHRM1; read-out: IP value
PROPERTY NAME: EC50 (nM)
Answers are plain numbers, in nM.

Use these answered entries as a reference point.
Cn1cc(-c2ccc(CN3Cc4ccnc(Oc5ccc(C(F)(F)F)cc5F)c4C3=O)cc2)cn1
12
Cn1ccc(-c2ccc(CN3Cc4ncnc(Oc5ccc(C(F)(F)F)cc5F)c4C3=O)cc2)n1
11

Challenge: What does the data say about its EC50? Entry: Cc1cc(-c2ccc(CN3Cc4ccnc(Oc5ccc(C#N)cc5F)c4C3=O)cc2)ccn1
Response given: 10
